Source: patent US10927075B2

# measurementProtocol: Pharmacokinetics after single intravenous injection or oral gavage
# Type: in vivo, Sprague Dawley rats
# conditionDescription: Sprague Dawley, rat, plasma; single intravenous injection 1 milligram per kilogram; read-out: Vss
# Procedure: C-1523-1A was formulated in PBS with 5% DMSO and given via single intravenous injection (1 milligram per kilogram) or by oral gavage to Sprague Dawley rats (2 milligrams per kilogram). Plasma concentrations were measure by mass spectrometry at t=15 min, t=30 min, t=1 hr, t=2 hr, t=4 hr, and t=8 hr for the intravenous cohort and at t=1 hr, t-2 hr, t-3 hr, t-4 hr, t-5 hr, t-6 hr. […] Oral availability is 2-3% (FIG. 3).
measuredQuantity: Vd (L/kg)
Please reply with the bare figure in L/kg and do not write the unit itself.

// Vd lookup, compound = CC(=O)Nc1ccc(/C=C/c2ccc(NC(=S)NC(C)C)cc2S(N)(=O)=O)c(S(N)(=O)=O)c1 [C-1523-1a] , result: 0.29

* * *

# measurementProtocol: Pharmacokinetics after single intravenous injection or oral gavage
# Assay type: in vivo, Sprague Dawley rats
# conditionDescription: Sprague Dawley, rat, plasma; single intravenous injection 1 milligram per kilogram; PBS with 5% DMSO
measuredQuantity: half-life (h)
Write the number in h without appending the unit.

Reported half-life of CC(=O)Nc1ccc(/C=C/c2ccc(NC(=S)NC(C)C)cc2S(N)(=O)=O)c(S(N)(=O)=O)c1 : 1.5

* * *

# measurementProtocol: Pharmacokinetics after single intravenous injection or oral gavage
# Format: in vivo, Sprague Dawley rats
# conditionDescription: Sprague Dawley, rat, plasma; single intravenous injection 1 milligram per kilogram
measuredQuantity: AUC (ng·h/mL)
Give the quantity in ng·h/mL, number only.

Per the records, this molecule ( CC(=O)Nc1ccc(/C=C/c2ccc(NC(=S)NC(C)C)cc2S(N)(=O)=O)c(S(N)(=O)=O)c1 [C-1523-1a] ) has AUC equal to 971

* * *

# measurementProtocol: Plasma concentration after administration of 2, 10, or 20 milligrams per kilogram
# Assay type: in vivo, Sprague Dawley rats
# conditionDescription: Sprague Dawley, rat, 20 mg/kg dosing
measuredQuantity: half-life

# half-life of CC(=O)Nc1ccc(/C=C/c2ccc(NC(=S)NC(C)C)cc2S(N)(=O)=O)c(S(N)(=O)=O)c1 [C-1523-1a] = ~6 h
